Organism: Homo sapiens
Procedure Summary: Selectivity ratio of Kb for human adrenergic alpha1D receptor to Kb for human adrenergic alpha1B receptor
Parameter Measured: Selectivity ratio
Answers are plain numbers.

Consider the reported Selectivity ratio for these compounds:
{"columns": ["Structure Smiles String", "Selectivity ratio"],
 "data": [
  ["CN1CCc2cc3c(c4c2[C@@H]1Cc1ccccc1-4)OCO3", 0.6],
  ["COc1cc2c3c(c1OC)-c1ccccc1C[C@H]3N(C)CC2", 3],
  ["COc1cc2c3c(c1OC)-c1ccccc1C[C@@H]3N(C)CC2", 0.4]
]}

Item CN1CCc2cc3c(c4c2[C@H]1Cc1ccccc1-4)OCO3 : provide Selectivity ratio 0.2
